# credit: paper PMC9671100

target: BChE (from equine serum) (Equus caballus, UniProt P81908); experiment: Anticholinesterase assay; details: BChE IC50, IC50 ± SEM; Ellman method, 30 min incubation, triplicate
Sequence (P81908 whole entry): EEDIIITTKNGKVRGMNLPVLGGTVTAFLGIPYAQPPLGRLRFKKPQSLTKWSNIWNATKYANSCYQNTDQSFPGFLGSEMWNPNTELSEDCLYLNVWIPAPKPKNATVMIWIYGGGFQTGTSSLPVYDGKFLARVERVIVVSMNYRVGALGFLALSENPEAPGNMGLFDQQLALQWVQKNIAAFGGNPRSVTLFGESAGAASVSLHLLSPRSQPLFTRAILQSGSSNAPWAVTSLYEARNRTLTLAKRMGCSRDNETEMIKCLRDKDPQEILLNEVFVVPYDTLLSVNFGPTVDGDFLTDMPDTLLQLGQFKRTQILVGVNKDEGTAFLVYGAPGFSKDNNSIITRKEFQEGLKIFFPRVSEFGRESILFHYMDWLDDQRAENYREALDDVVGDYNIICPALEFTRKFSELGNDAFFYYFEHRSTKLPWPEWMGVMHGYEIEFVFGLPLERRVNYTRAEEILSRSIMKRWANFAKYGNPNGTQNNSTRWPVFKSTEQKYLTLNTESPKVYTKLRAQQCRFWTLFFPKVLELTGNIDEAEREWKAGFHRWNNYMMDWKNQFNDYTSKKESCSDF
pIC50: −log10 of the molar value.
measuredProperty: pIC50

See these solved cases before continuing.
sampleSmiles | pIC50
Cc1nn(-c2ccccc2)c2nc3c(cc12)-c1nc(N)c(C#N)c(-c2ccc([N+](=O)[O-])cc2)c1CC3 | ≤ 3.43
CCOc1nc2c(c(-c3ccccc3)c1C#N)CCc1nc3c(cc1-2)c(C)nn3-c1ccccc1 | ≤ 3.43
Cc1nn(-c2ccccc2)c2nc3c(cc12)-c1nc(N)c(C#N)c(-c2cc4ccccc4nc2Cl)c1CC3 | ≤ 3.43

Could you report pIC50 for every entry in the following list?
1. Cc1nn(-c2ccccc2)c2nc3c(cc12)-c1nc(N)c(C#N)c(-c2ccc(Cl)cc2)c1CC3
2. Cc1nn(-c2ccccc2)c2nc3c(cc12)-c1nc(N)c(C#N)c(-c2ccccc2)c1CC3
3. Cc1nn(-c2ccccc2)c2nc3c(cc12)-c1nc(N)c(C#N)c(-c2ccc4c(c2)OCO4)c1CC3

1: < 3.09; 2: < 3.06; 3: 3.92

Could you report pIC50 for every entry in the following list?
1. Cc1nn(-c2ccccc2)c2nc3c(cc12)-c1nc(N)c(C#N)c(-c2ccc(C#N)cc2)c1CC3
2. COc1cc(-c2c(C#N)c(N)nc3c2CCc2nc4c(cc2-3)c(C)nn4-c2ccccc2)cc(OC)c1OC
3. Cc1ccc(-c2c(C#N)c(N)nc3c2CCc2nc4c(cc2-3)c(C)nn4-c2ccccc2)cc1

1: ≤ 3.43; 2: ≤ 3.43; 3: < 3.07

====

Below are compounds with their pIC50 as measured on AChE (from Electrophorus electricus) (Electrophorus electricus, UniProt O42275).
Sequence (O42275 24-633): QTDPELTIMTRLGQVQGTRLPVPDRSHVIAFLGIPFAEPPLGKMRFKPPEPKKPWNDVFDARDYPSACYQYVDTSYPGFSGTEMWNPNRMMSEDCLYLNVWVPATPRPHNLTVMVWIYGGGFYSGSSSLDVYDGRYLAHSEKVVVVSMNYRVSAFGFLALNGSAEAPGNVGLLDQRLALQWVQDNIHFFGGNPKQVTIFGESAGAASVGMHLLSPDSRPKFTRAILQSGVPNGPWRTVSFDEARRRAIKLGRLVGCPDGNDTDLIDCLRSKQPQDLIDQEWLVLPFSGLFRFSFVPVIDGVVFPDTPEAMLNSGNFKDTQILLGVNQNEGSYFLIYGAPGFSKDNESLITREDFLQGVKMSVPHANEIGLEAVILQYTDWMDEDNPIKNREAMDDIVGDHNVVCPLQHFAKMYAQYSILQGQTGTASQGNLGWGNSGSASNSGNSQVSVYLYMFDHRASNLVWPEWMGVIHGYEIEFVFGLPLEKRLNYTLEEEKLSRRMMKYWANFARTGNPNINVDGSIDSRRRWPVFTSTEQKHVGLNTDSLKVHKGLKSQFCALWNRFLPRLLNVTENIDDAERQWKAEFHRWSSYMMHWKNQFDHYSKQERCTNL
Answers are plain numbers, as −log10 of the molar value.

See these solved cases before continuing.
sampleSmiles | measuredProperty | measuredNumber
Cc1nn(-c2ccccc2)c2nc3c(cc12)-c1nc(N)c(C#N)c(-c2cc4ccccc4nc2Cl)c1CC3 | pIC50 | 3.87
CCOc1nc2c(c(-c3ccccc3)c1C#N)CCc1nc3c(cc1-2)c(C)nn3-c1ccccc1 | pIC50 | 3.48
COc1cc(-c2c(C#N)c(N)nc3c2CCc2nc4c(cc2-3)c(C)nn4-c2ccccc2)cc(OC)c1OC | pIC50 | 3.65
Cc1nn(-c2ccccc2)c2nc3c(cc12)-c1nc(N)c(C#N)c(-c2ccc(C#N)cc2)c1CC3 | pIC50 | 4.07
Cc1nn(-c2ccccc2)c2nc3c(cc12)-c1nc(N)c(C#N)c(-c2ccc([N+](=O)[O-])cc2)c1CC3 | pIC50 | 3.72
Cc1nn(-c2ccccc2)c2nc3c(cc12)-c1nc(N)c(C#N)c(-c2ccc4c(c2)OCO4)c1CC3 | pIC50 | 3.77

For the compound Cc1nn(-c2ccccc2)c2nc3c(cc12)-c1nc(N)c(C#N)c(-c2ccccc2)c1CC3 , give its reported pIC50.
3.59

====

experiment: DPPH radical scavenging activity; conditions: 517 nm, 5 min at room temperature
Exercise: state measured DPPH EC50 for each of the compounds provided.

compound | DPPH EC50
Cc1nn(-c2ccccc2)c2nc3c(cc12)-c1nc(N)c(C#N)c(-c2ccc([N+](=O)[O-])cc2)c1CC3 | 26.71 µg/mL
COc1cc(-c2c(C#N)c(N)nc3c2CCc2nc4c(cc2-3)c(C)nn4-c2ccccc2)cc(OC)c1OC | >100 µg/mL
Cc1nn(-c2ccccc2)c2nc3c(cc12)-c1nc(N)c(C#N)c(-c2ccc(C#N)cc2)c1CC3 | >100 µg/mL
O=C1O[C@H]([C@@H](O)CO)C(O)=C1O [Ascorbic acid, reference compound] | 1.5 ± 0.2 µg/mL
Cc1nn(-c2ccccc2)c2nc3c(cc12)-c1nc(N)c(C#N)c(-c2ccccc2)c1CC3 | >100 µg/mL

Could you report DPPH EC50 for every entry in the following list?
1. Cc1ccc(-c2c(C#N)c(N)nc3c2CCc2nc4c(cc2-3)c(C)nn4-c2ccccc2)cc1
2. CCOc1nc2c(c(-c3ccccc3)c1C#N)CCc1nc3c(cc1-2)c(C)nn3-c1ccccc1

1: >100 µg/mL; 2: >100 µg/mL
